A collection of binders and their measured OD490
Target: T1, M7-2
T1 construct: also called PD1 mutant M7-2
Assay: scFv-phage ELISA
VALUE TYPE: OD490

- PD1-41C9 (antibody, V domains shown, scFv-phage in the screening ELISA; whole IgG in the other assays) VH: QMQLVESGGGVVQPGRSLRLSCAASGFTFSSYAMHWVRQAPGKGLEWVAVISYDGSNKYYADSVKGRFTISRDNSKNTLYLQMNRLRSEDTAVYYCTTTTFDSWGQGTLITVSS VL: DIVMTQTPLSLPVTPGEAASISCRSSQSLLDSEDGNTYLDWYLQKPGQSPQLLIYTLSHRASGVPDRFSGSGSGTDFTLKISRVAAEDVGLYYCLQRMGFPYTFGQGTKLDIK: 3
- PD1-31F3 (antibody, V domains shown, scFv-phage in the screening ELISA; later whole IgG) VH: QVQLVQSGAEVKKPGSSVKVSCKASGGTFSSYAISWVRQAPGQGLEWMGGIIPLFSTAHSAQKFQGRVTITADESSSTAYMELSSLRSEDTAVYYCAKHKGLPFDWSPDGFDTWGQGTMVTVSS VL: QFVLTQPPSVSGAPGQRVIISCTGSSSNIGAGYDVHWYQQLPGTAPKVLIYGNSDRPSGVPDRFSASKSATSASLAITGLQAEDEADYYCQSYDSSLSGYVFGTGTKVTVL: 1.5
- PD1-29H3 (antibody, V domains shown, scFv-phage in the screening ELISA; later whole IgG) VH: QMQLVESGGNLVQPGRSLRLSCAASGFTFDDYGMHWVRQAPGKGLEWVSSISWNSGTIGYADSVKGRFTISRDNAKNSLYLQMNSLRSEDTAVYYCARLLHQMNEHEFMDVWGQGTTVTVSS VL: QLVLTQPSSMSEAPGQRVTISCSGGTSNIGTNAVNWYQQPPGKAPTLLIYYDDRLTSGVSDRFSGSKSGTSASLAISRLQSEDEADYYCAAWDDSLNGWVFGGGTKLTVL: 3.1
- PD1-52E8 (antibody, V domains shown, scFv-phage in the screening ELISA; whole IgG in the other assays) VH: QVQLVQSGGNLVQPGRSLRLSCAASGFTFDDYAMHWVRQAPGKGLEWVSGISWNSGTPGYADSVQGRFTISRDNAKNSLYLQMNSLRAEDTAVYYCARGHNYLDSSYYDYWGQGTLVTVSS VL: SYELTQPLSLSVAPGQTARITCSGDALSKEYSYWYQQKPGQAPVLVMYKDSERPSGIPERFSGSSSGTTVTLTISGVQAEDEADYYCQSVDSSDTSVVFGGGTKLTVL: 3.9
- PD1-44B5 (antibody, V domains shown, scFv-phage in the screening ELISA; later whole IgG) VH: QVQLVESGGGVVQPGRSLRLSCAASGFTFSSYAMHWVRQAPGKGLEWVAVISYDGSNKYYADSVKGRFTISRDNSKNTLYLQMNSLRAEDTAVYYCARLMHTFSVQYFLDVWGQGTTVTVSS VL: QFVLTQSPSASGTPGQNIVISCSASTFNIGTTTVNWYQRLPGTAPKLLIYNYDQRPSGVPDRFSGSKSGTSASLAISGLQSEDEADYYCAAWDDSLNAWLFGGGTKLTVL: 3.7
- PD1-49A2 (antibody, V domains shown, scFv-phage in the screening ELISA; whole IgG in the other assays; also called Parent 49A2) VH: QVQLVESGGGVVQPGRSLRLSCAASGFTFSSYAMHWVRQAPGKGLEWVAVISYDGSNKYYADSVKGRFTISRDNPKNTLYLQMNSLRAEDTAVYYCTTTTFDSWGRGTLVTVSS VL: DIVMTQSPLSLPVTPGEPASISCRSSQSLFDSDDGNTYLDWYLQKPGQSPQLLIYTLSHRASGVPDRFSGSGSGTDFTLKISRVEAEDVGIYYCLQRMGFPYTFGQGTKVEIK: 2.2
